# TARGET OF ASSAY: T1, LRP6 E1E4 (Homo sapiens, UniProt O75581)
# T1 construct: construct E1E4-amino acids A20-Q1253 of LPR6; made in house; host or cells: Tni insect cells (baculovirus, secreted)
# T1 sequence (O75581 20-1253): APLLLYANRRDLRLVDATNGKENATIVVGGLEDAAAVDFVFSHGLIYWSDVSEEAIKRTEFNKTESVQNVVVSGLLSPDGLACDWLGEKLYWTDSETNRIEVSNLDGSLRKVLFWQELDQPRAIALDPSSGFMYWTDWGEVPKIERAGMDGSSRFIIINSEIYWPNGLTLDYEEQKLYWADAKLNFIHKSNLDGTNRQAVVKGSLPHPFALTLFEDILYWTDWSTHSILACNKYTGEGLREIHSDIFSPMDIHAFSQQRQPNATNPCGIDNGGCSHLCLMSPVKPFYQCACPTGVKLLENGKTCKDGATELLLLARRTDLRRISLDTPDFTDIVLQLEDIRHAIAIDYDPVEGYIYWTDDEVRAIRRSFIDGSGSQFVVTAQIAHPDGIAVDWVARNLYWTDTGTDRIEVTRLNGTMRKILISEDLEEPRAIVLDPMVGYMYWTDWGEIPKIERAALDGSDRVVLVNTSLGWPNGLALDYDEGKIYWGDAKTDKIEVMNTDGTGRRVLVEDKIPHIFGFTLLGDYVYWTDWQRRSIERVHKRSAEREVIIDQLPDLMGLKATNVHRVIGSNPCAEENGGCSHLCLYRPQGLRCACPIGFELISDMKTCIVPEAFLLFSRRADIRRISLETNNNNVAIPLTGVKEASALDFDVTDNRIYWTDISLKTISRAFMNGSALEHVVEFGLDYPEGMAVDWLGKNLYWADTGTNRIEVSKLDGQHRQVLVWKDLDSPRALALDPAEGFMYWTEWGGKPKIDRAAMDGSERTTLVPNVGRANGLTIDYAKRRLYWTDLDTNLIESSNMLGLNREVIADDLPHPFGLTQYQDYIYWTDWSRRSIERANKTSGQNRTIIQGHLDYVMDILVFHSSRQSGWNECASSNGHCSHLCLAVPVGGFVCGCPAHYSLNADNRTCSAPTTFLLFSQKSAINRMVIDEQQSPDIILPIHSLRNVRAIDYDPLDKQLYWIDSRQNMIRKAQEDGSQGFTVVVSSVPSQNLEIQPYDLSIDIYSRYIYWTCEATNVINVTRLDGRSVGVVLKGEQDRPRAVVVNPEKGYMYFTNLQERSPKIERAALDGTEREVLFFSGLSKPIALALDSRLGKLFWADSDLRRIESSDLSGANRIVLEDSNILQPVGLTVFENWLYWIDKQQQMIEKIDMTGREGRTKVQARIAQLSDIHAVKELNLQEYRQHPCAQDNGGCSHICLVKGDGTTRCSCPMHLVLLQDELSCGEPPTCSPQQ
# MEASUREMENT DESCRIPTION: Biolayer interferometry binding to LRP6 E1E4
QUANTITY: binding to LRP6 E1E4 (in words)

Provide measured binding to LRP6 E1E4 (in words) value, entry: Dkk1 Asn40Ala (ligand, human, UniProt O94907 32-266, looked up, also called Dkk1 N40A) TLNSVLNSAAIKNLPPPLGGAAGHPGSAVSAAPGILYPGGNKYQTIDNYQPYPCAEDEECGTDEYCASPTRGGDAGVQICLACRKRRKRCMRHAMCCPGNYCKNGICVSSDQNHFRGEIEETITESFGNDHSTLDGYSRRTTLSSKMYHTKGQEGSVCLRSSDCASGLCCARHFWSKICKPVLKEGQVCTKHRRKGSHGLEIFQRCYCGEGLSCRIQKDHHQASNSSRLHTCQRH
retain binding

Provide measured binding to LRP6 E1E4 (in words) value, entry: Dkk1 K211E (ligand, human, UniProt O94907 32-266, looked up, also called Dkk1 Lys211Glu) TLNSVLNSNAIKNLPPPLGGAAGHPGSAVSAAPGILYPGGNKYQTIDNYQPYPCAEDEECGTDEYCASPTRGGDAGVQICLACRKRRKRCMRHAMCCPGNYCKNGICVSSDQNHFRGEIEETITESFGNDHSTLDGYSRRTTLSSKMYHTKGQEGSVCLRSSDCASGLCCARHFWSKICEPVLKEGQVCTKHRRKGSHGLEIFQRCYCGEGLSCRIQKDHHQASNSSRLHTCQRH
retain binding

Provide measured binding to LRP6 E1E4 (in words) value, entry: Dkk1 Ile42Glu (ligand, human, UniProt O94907 32-266, looked up, also called Dkk1 I42E) TLNSVLNSNAEKNLPPPLGGAAGHPGSAVSAAPGILYPGGNKYQTIDNYQPYPCAEDEECGTDEYCASPTRGGDAGVQICLACRKRRKRCMRHAMCCPGNYCKNGICVSSDQNHFRGEIEETITESFGNDHSTLDGYSRRTTLSSKMYHTKGQEGSVCLRSSDCASGLCCARHFWSKICKPVLKEGQVCTKHRRKGSHGLEIFQRCYCGEGLSCRIQKDHHQASNSSRLHTCQRH
retain binding
